The measurements presented in this section are drawn from ChEMBL document CHEMBL1136956.

Assay: Clearance in rat at 1 mg/kg, iv and 3 mg/kg, po
Format: ADME, organism-based
Conditions: in vivo
Measured Quantity: clearance (mL/min/kg)

INSERT INTO results (input_smiles, measured_quantity, measurement_unit, data_value) VALUES
  ('CC(C)N(C)c1nc2ccc(NC(=O)c3cnc(-c4ccc(F)cc4)cn3)cc2[nH]1', 'clearance', 'mL/min/kg', 11);

---

Assay: Volume of distribution in rat at 1 mg/kg, iv and 3 mg/kg, po
Type: ADME, organism-based
Settings: in vivo
Measured Quantity: Vd (L/kg)

INSERT INTO measurements (input_smiles, measured_quantity, data_value) VALUES
  ('CC(C)N(C)c1nc2ccc(NC(=O)c3cnc(-c4ccc(F)cc4)cn3)cc2[nH]1', 'Vd', 1.2);

---

Assay: Half life in rat at 1 mg/kg, iv and 3 mg/kg, po
Assay type: ADME, organism-based
Conditions: in vivo
Measured Quantity: half-life (h)

INSERT INTO results (input_smiles, measurement_unit, data_value) VALUES
  ('CC(C)N(C)c1nc2ccc(NC(=O)c3cnc(-c4ccc(F)cc4)cn3)cc2[nH]1', 'h', 2.3);

---

Experiment: Intrinsic clearance in rat hepatocytes
Type: ADME, cell-based, Liver, Hepatocyte
Measured Quantity: CLint scaled (mL/min/kg)

INSERT INTO results (input_smiles, measured_quantity, data_value) VALUES
  ('CC(C)N(C)c1nc2ccc(NC(=O)c3ccc(-c4ccc(C(F)(F)F)cn4)cc3)cc2[nH]1', 'CLint scaled', 16),
  ('CC(C)N(C)c1nc2ccc(NC(=O)c3ccc(-c4ccccc4)nc3)cc2[nH]1', 'CLint scaled', 12),
  ('CC(C)N(C)c1nc2ccc(NC(=O)c3cnc(-c4ccc(F)cc4)cn3)cc2[nH]1', 'CLint scaled', 10),
  ('CC(C)N(C)c1nc2ccc(NC(=O)c3ncc(-c4ccc(F)cc4)cn3)cc2[nH]1', 'CLint scaled', 9),
  ('CC(C)N(C)c1nc2ccc(NC(=O)c3ccc(-c4ccc(F)cc4)nc3)cc2[nH]1', 'CLint scaled', 8),
  ('CC(C)N(C)c1nc2ccc(NC(=O)CCc3ccc(C(F)(F)F)cc3)cc2[nH]1', 'CLint scaled', 32);

---

Target: Melanin-concentrating hormone receptor 1 (Homo sapiens)
Assay: Displacement of [125I]MCH from human MCH1 receptor expressed in CHO-K1 cells by scintillation counting
Type: cell-based
pIC50: −log10 of the molar value.
Measured Quantity: pIC50

INSERT INTO measurements (compound, measured_quantity, reported_relation, data_value) VALUES
  ('CN1CCC(N(C)c2nc3ccc(NC(=O)CCc4ccc(C(F)(F)F)cc4)cc3[nH]2)CC1', 'pIC50', '=', 7.64),
  ('CC(C)N(C)c1nc2ccc(NC(=O)c3cncc(-c4ccc(F)cc4)c3)cc2[nH]1', 'pIC50', '=', 6.05),
  ('CC(C)N(C)c1nc2ccc(NC(=O)c3ccc(-c4ccc(C(F)(F)F)cn4)cc3)cc2[nH]1', 'pIC50', '=', 8.51),
  ('CC(C)N(C)c1nc2ccc(NC(=O)CCc3ccc(C(F)(F)F)cc3)cc2s1', 'pIC50', '<', 6.12),
  ('CC(C)N(C)c1nc2ccc(NC(=O)CCc3ccc(C(F)(F)F)cn3)cc2[nH]1', 'pIC50', '=', 7.39),
  ('CN(c1nc2ccc(NC(=O)CCc3ccc(C(F)(F)F)cc3)cc2[nH]1)C1CCCCC1', 'pIC50', '=', 8.17),
  ('CN(c1nc2ccc(NC(=O)CCc3ccc(C(F)(F)F)cc3)cc2[nH]1)C1CC1', 'pIC50', '=', 7.62),
  ('CC(C)N(C)c1nc2ccc(NC(=O)c3ncc(-c4ccc(F)cc4)cn3)cc2[nH]1', 'pIC50', '=', 7.82),
  ('CC(=O)N1CCC(N(C)c2nc3ccc(NC(=O)CCc4ccc(C(F)(F)F)cc4)cc3[nH]2)C1 (centres undefined)', 'pIC50', '=', 7.52);

---

Assay: Ratio of drug level from brain to plasma in rat at 30 mg/kg, po after 2 hrs
Format: ADME, organism-based
Set-up: dose 30 mg/kg, route oral
Conditions: brain and plasma, read-out: BPR
Measured Quantity: Kp at 2 h

INSERT INTO assay_data (input_smiles, data_value) VALUES
  ('CC(C)N(C)c1nc2ccc(NC(=O)c3cnc(-c4ccc(F)cc4)cn3)cc2[nH]1', 0.36);

---

Molecular target: Melanin-concentrating hormone receptor 1 (Homo sapiens, UniProt Q99705)
Sequence (Q99705 whole entry): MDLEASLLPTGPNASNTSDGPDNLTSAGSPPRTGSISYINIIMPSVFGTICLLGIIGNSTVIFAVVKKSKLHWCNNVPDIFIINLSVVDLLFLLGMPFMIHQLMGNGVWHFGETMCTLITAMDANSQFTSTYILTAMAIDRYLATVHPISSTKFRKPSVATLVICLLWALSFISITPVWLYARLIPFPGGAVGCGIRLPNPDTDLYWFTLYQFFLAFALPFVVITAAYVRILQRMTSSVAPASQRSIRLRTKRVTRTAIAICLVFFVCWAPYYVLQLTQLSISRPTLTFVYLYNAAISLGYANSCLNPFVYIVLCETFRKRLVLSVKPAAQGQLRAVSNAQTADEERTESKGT
Assay: Displacement of [125I]MCH from human MCH1 receptor expressed in CHO-K1 cells by scintillation counting
Format: cell-based
pIC50: −log10 of the molar value.
Measured Quantity: pIC50

INSERT INTO measurements (compound, data_value) VALUES
  ('CC(C)N(C)c1nc2ccc(NC(=O)CCc3ccc(C(F)(F)F)cc3)cc2[nH]1', 8.23),
  ('CC(C)N(C)c1nc2ccc(NC(=O)c3cnc(-c4ccc(F)cc4)cn3)cc2[nH]1', 8.57),
  ('CC(C)N(C)c1ccc2cc(NC(=O)CCc3ccc(C(F)(F)F)cc3)cnc2n1', 6.44),
  ('CC(C)N(C)c1ccc2nc(NC(=O)CCc3ccc(C(F)(F)F)cc3)ccc2n1', 6.43),
  ('CCN(C)c1nc2ccc(NC(=O)CCc3ccc(C(F)(F)F)cc3)cc2[nH]1', 7.72),
  ('CN(c1nc2ccc(NC(=O)CCc3ccc(C(F)(F)F)cc3)cc2[nH]1)C1CCOC1 (configuration not stated)', 7.57),
  ('CC(C)N(C)c1nc2ccc(NC(=O)c3ccc(-c4ccccc4)nc3)cc2[nH]1', 8.06),
  ('CN(c1nc2ccc(NC(=O)CCc3ccc(C(F)(F)F)cc3)cc2[nH]1)C1CCCC1', 8.40),
  ('CC(C)N(C)c1nc2ccc(NC(=O)c3ccc(-c4ccc(F)cc4)nc3)cc2[nH]1', 8.26),
  ('O=C(CCc1ccc(C(F)(F)F)cc1)Nc1ccc2nc(N3CCOCC3)[nH]c2c1', 6.37),
  ('CCN(c1nc2ccc(NC(=O)CCc3ccc(C(F)(F)F)cc3)cc2[nH]1)C1CCCCC1', 6.87),
  ('CN(C)c1nc2ccc(NC(=O)CCc3ccc(C(F)(F)F)cc3)cc2[nH]1', 7.92);

---

IC50 values, listed per item
Target: Melanin-concentrating hormone receptor 1 (Homo sapiens)
Experiment: Antagonist activity at human MCH1 receptor expressed in CHO-K1 cells assessed as inhibition of MCH-induced intracellular calcium mobilization by FLIPR assay
Format: functional, cell-based
Measured Quantity: IC50 (nM)

INSERT INTO measurements (input_smiles, measured_quantity, data_value) VALUES
  ('CN(c1nc2ccc(NC(=O)CCc3ccc(C(F)(F)F)cc3)cc2[nH]1)C1CCCCC1', 'IC50', 27),
  ('CC(C)N(C)c1nc2ccc(NC(=O)CCc3ccc(C(F)(F)F)cc3)cc2[nH]1', 'IC50', 21),
  ('CN(c1nc2ccc(NC(=O)CCc3ccc(C(F)(F)F)cc3)cc2[nH]1)C1CCCC1', 'IC50', 22);

---

Test: Plasma concentration in rat at 30 mg/kg, po after 2 hrs
Format: ADME, organism-based
Parameters: dose 30 mg/kg, route oral
Measured Quantity: concentration at 2 h

INSERT INTO results (input_smiles, measured_quantity, data_value) VALUES
  ('CC(C)N(C)c1nc2ccc(NC(=O)c3cnc(-c4ccc(F)cc4)cn3)cc2[nH]1', 'concentration at 2 h', '3.9 µM');
